Provenance of the data: patent US5399696A

assaySystem: AMPA receptor
procedureDetails: Radioligand binding: [^3 H]AMPA binding with crude membranes of rat forebrain
testParameters: Table II; enantiopure; [^3 H]AMPA 5 nM, 100 mM KSCN; mean ± standard error (n = 3), values marked ^c single experiment; read-out: IC50 AMPA, receptor binding
measuredAttribute: IC50 (µM)
Just the number please, in µM, no unit attached.

1. O=C(O)[C@@H]1C[C@H]2C[C@H](CCc3nn[nH]n3)CC[C@H]2CN1 :: 15.3
2. O=C(O)[C@@H]1C[C@H]2C[C@@H](CCc3nn[nH]n3)CC[C@H]2CN1 :: 1.35

We now examine a further compound.
Value of measured IC50 for the entry O=C(O)[C@@H]1C[C@H]2C[C@H](CSc3nn[nH]n3)CC[C@H]2CN1 : 17.8
